# System: SF-268 CNS
# ASSAY: NCI tumour cell line growth inhibition, 48 h
For each entry below, report its TGI value.

Tested system SF-268 CNS; TGI recorded for C=CCOCCC(CC=C)C(=O)CC(=O)OC (stereo not drawn) was > 100 µM

Param item: COCN(C)c1nc(N(C)C)nc(N(C)C)n1 ; param system: SF-268 CNS; output TGI: > 100 µM

Readout TGI for c1ccc(Oc2ccc(Nc3ncc(-c4ccccc4)o3)cc2)cc1 , test system SF-268 CNS, was > 25 µM

====

# Test system: SK-OV-3 ovarian
# ASSAY: NCI tumour cell line growth inhibition, 48 h; in the data active = GI50 below about 0.43 µM; inactive = the rest
Pick from true (1) (active), false (0) (inactive) when you respond.

Any idea what this test logged for CCCCCCCCCCCCN=C(N)c1ccc(N2CCN(c3ccc(C(N)=NCCCCCCCCCCCC)cc3)CC2)cc1 ?
false (0)

What was the test verdict on COc1ccc2c(c1)/C(=C\c1c(-c3cc(OC)ccc3OC)nc3sccn13)C(=O)N2 ?
false (0)

What outcome does the record of this test show for c1ccc(-c2n(Cc3ccc4ccccc4c3)c3ccccc3[n+]2Cc2ccc3ccccc3c2)cc1 ?
true (1)

Hey, what did the test say about C=C1C(=O)O[C@H]2[C@H]1CC/C(COC(=O)/C=C\C(=O)NCc1ccc(Cn3c(=O)sn(CCI)c3=O)cc1)=C\CC[C@@]1(C)O[C@@H]21 ?
false (0)

Entry CCOC(=O)c1c(C)nc2c(c1N)/C(=C/c1ccccn1)C(=O)N2Cc1ccccc1 : call = ?
false (0)

What classification did COc1cc(-c2nc3ccccc3o2)cc(CN2CCCCC2)c1O end up with in this test?
false (0)

// param item: Fc1ccc(-c2nn3ccccc3c2-c2ccncc2)cc1 ; yields the recorded call
false (0)

Query: recorded result category for COc1ccc2c(O)c(/C=C3\N=Nc4ncccc43)oc2c1C[C@@H]1CCNC[C@H]1F in this test
false (0)

Per the assay record, what outcome was assigned to C#C[C@@]1(O)[C@@H](CO)O[C@@H](n2cc(C(F)(F)F)c3c(N)ncnc32)[C@@H]1O ?
true (1)

// param item: N#Cc1nc(C#N)c(Sc2ccccc2)c(Sc2ccccc2)c1Sc1ccccc1 ; yields the recorded call
false (0)

Check the results log: what was the call for C[N+](C)(C)c1cc[c]([Sn]([c]2ccc([N+](C)(C)C)cc2)([c]2ccc([N+](C)(C)C)cc2)[c]2ccc([N+](C)(C)C)cc2)cc1 ?
false (0)

====

# Tested on: DU-145 prostate
# ASSAY: NCI tumour cell line growth inhibition, 48 h
RECORDED_ENDPOINT: TGI

// TGI (DU-145 prostate) for O=c1oc2ccccc2c(O)c1C(c1ccc(-c2ccccc2)cc1)c1c(O)c2ccccc2oc1=O = > 100 µM

Let me check: CS(=O)(=O)OCCCSCCSCCCOS(C)(=O)=O , system DU-145 prostate, measured TGI is > 100 µM

// assay DU-145 prostate, entry c1ccc2c(c1)c1c3c(c4c(n32)=NCCN4)CCC1 , TGI value = > 100 µM

====

Exercise: state measured TGI for each of the molecules provided.
# Tested on: LXFL 529 NSCLC
# ASSAY: NCI tumour cell line growth inhibition, 48 h

Value of measured TGI for the entry CCCCNC(=S)OCCC(C)CCCC(C)C (stereo unspecified) : > 100 µM

Input C[N+](C)(C)c1cc[c]([Sn]([c]2ccc([N+](C)(C)C)cc2)([c]2ccc([N+](C)(C)C)cc2)[c]2ccc([N+](C)(C)C)cc2)cc1 . Output TGI: > 100 µM

The molecule CCCCCCCCCCCCCCCC(=O)OCCOCCOCCOCCOCCOC(=O)CCCCCCCCCCCCCCC showed TGI equal to > 100 µM

So for CCOC(=N)CC(=O)Nc1ccccc1 , the logged TGI turned out to be > 46.4 µM

Please fill in: TGI reported for CC1C=CC(C(N)C(=O)O)O1 (stereo unspecified) = > 100 µM

O=C1C=C2CCCC2C(C(=O)O)(C(=O)O)C1 (stereo unspecified) yielded TGI of > 100 µM
